- assayed-target: T1, wild-type EGFR protein on the surfaces of A431 tumor cells and normal human primary hepatocytes (human, UniProt P00533 25-1210)
- T1 construct: whole, on cells; Same protein on two cell types; also called human epidermal growth factor receptor; her-1
- procedure-summary: FACS, normal human primary hepatocytes
Exercise: state measured mean fluorescence intensity (MFI) for each of the binders provided.
Give a bare numeral; the unit MFI is implied.

INPUT: Need mean fluorescence intensity (MFI) of Humanized antibody h63A10A7-21 (antibody, human IgG1, V domains shown, Human IgG1 constant region, human kappa constant region) VH: QVQLVQSGAEVKKPGASVKVSCKASGYTFISFTMHWVKQRPGQGLEWIGYINPNSGYTKYNQKFKDRVTLTRDTSTSTVYMELSSLRSEDTAVYYCTRGGGRGFAYWGQGTLVTVSS VL: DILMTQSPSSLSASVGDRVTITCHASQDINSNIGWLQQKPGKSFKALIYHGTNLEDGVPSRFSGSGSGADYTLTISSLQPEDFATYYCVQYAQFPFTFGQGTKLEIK , thanks.
OUTPUT: 568

INPUT: Also Humanized antibody h63A10A7-24 (antibody, human IgG1, V domains shown, Human IgG1 constant region, human kappa constant region) VH: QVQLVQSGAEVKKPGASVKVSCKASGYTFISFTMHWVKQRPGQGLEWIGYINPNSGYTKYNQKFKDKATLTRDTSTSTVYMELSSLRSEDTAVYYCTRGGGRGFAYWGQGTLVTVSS VL: DILMTQSPSSLSASVGDRVTITCHASQDINSNIGWLQQKPGKSFKALIYHGTNLEDGVPSRFSGSGSGTDYTLTISSLQPEDFATYYCVQYAQFPFTFGQGTKLEIK , if possible.
OUTPUT: 502

INPUT: Also Humanized antibody h63A10A7-20 (antibody, human IgG1, V domains shown, Human IgG1 constant region, human kappa constant region) VH: QVQLVQSGAEVKKPGASVKVSCKASGYTFISFTMHWVRQAPGQGLEWIGYINPNSGYTKYNQKFKDKATLTRDTSTSTVYMELSSLRSEDTAVYYCTRGGGRGFAYWGQGTLVTVSS VL: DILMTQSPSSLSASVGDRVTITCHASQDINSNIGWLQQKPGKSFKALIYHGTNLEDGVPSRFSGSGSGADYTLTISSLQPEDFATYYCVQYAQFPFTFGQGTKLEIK , if possible.
OUTPUT: 486

INPUT: Also Humanized antibody h63A10A7-17 (antibody, human IgG1, V domains shown, Human IgG1 constant region, human kappa constant region) VH: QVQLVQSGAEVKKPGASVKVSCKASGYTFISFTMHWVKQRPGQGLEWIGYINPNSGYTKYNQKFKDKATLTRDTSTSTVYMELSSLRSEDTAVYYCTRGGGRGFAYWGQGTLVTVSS VL: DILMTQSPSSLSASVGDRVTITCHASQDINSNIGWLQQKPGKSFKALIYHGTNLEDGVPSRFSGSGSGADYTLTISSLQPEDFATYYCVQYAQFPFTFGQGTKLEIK , if possible.
OUTPUT: 677

INPUT: Also Humanized antibody h63A10A7-37 (antibody, human IgG1, V domains shown, Human IgG1 constant region, human kappa constant region) VH: QVQLVQSGAEVKKPGASVKVSCKASGYTFISFTMHWVKQRPGQGLEWMGYINPNSGYTKYNQKFKDKATMTRDTSTSTVYMELSSLRSEDTAVYYCTRGGGRGFAYWGQGTLVTVSS VL: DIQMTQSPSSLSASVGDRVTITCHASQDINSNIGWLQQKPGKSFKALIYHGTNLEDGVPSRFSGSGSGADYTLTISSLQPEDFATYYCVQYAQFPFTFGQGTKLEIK , if possible.
OUTPUT: 265
